Experiment: folding stability dG unfold from trypsin proteolysis; higher = more stable
The following sequences are shown together with reported folding stability dG unfold values.
Measure: folding stability dG unfold (kJ/mol)

                             sequence_entry                      measure  observed_result
0  SAGGSAGGSAGGGPEDRVVPLFFEFDLPEDVVLEVPSDADVFVFRLPDRTLMVLLVDERESAGGSAGGSAGG [r7_584_TrMRF]  folding stability dG unfold             7.62
1  SAMKIKIKVIGVLKPENHALIFLELDDSIPPEIPVVIRIKNENGEILEIPIEGNRALLVVDDRKIEILTSAG [r14_350_TrMRF]  folding stability dG unfold             7.61
2  SAGGGMNEKVIEIEVTVTAPDGKVTTNPTTVVSNSLEEVKASIKASIPPNWSITVTVLKTKSLKEVLSSAGG [r13_513_JUSTAS]  folding stability dG unfold             2.79
3  SAGGLDPDGKIRWQPITITIEIPIPPGDEELANKIADWLRDLGIEVEIKRNPNGYIQITVEFWVLVIDSAGG [r13_702_TrROS]  folding stability dG unfold               16
4  SAGGWMPIEDLKDIPENMPPGYKITIRNPGNGQEGTFEYNKDGGIKIEDPGKPVEIPPGAYIDEIEPSAGGS [r8_162_TrROS]  folding stability dG unfold             2.74
5  SAGGRVRLEEVEILPPLEDPEDNPDRPLLLLRVRARVEYDTPEGPREEERELVLVVSPERLEEALEALSAGG [r13_149_TrMRF]  folding stability dG unfold             3.32
6  SAGGSAGGSAKPLTVEEIIKKLNLPPNVEIVDVKVDYGKTENKPIIVLVLKTKDKPYLPVFASAGGSAGGSA [r18_354_TrMRF]  folding stability dG unfold             5.22
